Values compiled from the supplement of paper PMC9170038.

Each entry below carries its reported apparent KD of MS2 coat protein.
- Tested on: MS2 coat protein
- assayName: apparent KD of MS2 coat protein; designed switch direction (-1 OFF switch, 1 ON switch): -1; higher = weaker reporter binding
- runConditions: input ligand: none
recordedMetric: apparent KD of MS2 coat protein (nM)

- chain: "AACUCACGUUCAGGAUAUCGCGUUCCAAAGACAUGAGAAGGGAACAUGAGGAUCACCCAUGUGCCCGGUCUCAGACCGGGCUUC [Cetein] (Eterna round: R96, puzzle: Exclusion NG 1)"
  scaleUnit: "nM"
  resultNumber: 88.8
- chain: "CCGCUGCAAGGAUAUACUUGCGGUGAUGUUCGAGUUCUUCUACUUGAGGAUCACCCAAGUAGAAGGUGCAAAAC [jl-ex2.4.58 ViennaUCT mod] (Eterna round: R97, puzzle: Exclusion 2)"
  scaleUnit: "nM"
  resultNumber: 19.3
- chain: "AAGUCACAGGGAGGAUAUGUGAAAGGAAGUGUAACAGAAGGCCCAACGUAGGGCGAGACAUGAGGAUCACCCAUGUAUAAAAGA [PowerStrip EXNG 1.16] (Eterna round: R96, puzzle: Exclusion NG 1)"
  scaleUnit: "nM"
  resultNumber: 25.9
- chain: "AUCCGACAUGAGGAUCACCCAUGUCAGGAUAUGGACUGACAUCGAAAGGAUGGAAGAACCAGAAGGGACUGGGC [Betiqu] (Eterna round: R96, puzzle: Exclusion 1)"
  scaleUnit: "nM"
  resultNumber: 20.1
- chain: "UGCUGACGAGGAUAUACAUGAGGAUCACCCAUGUAAGAUCAGCGACGAUAGUCGCAAUGUAGAAGGCGUCAGCA [E3/10-A3] (Eterna round: R97, puzzle: Exclusion 3)"
  scaleUnit: "nM"
  resultNumber: 28.5
- chain: "GCACGAAGUGUAGGAUAUCUGUGCGAUUAGCUCAGAGAAGGACACAUGAGGAUCACCCAUGUGUUUCACGGAAACGAAACGUGC [Eli exng1 - 054] (Eterna round: R96, puzzle: Exclusion NG 1)"
  scaleUnit: "nM"
  resultNumber: 16.2
- chain: "GCGGAUUAUGUAGGAUAUCGGUCAGUUUCUGAUCGAGAAGGACAUGAGGAUCACCCAUGUAAAUUGCUCGCUUUGUGAGCCCGC [JL ENG1 3.63] (Eterna round: R96, puzzle: Exclusion NG 1)"
  scaleUnit: "nM"
  resultNumber: 14.8
- chain: "UAUCCACAUGAGGAUCACCCAUGUCAGGAUAUGCACUAUGGGCCAAGUGGUCCAAGGAGCAGAAGGGACGAGAG [Eternabot (L2) Solution 25] (Eterna round: R97, puzzle: Exclusion 1)"
  scaleUnit: "nM"
  resultNumber: 15.2
- chain: "GCCUGCUGGCGAGGAUAUCCUGUGCGGUUCCGGCUCGUGUCUGUUACAUGAGGAUCACCCAUGUGGGAGAAGGUGUCUGUGGCC [Design 99] (Eterna round: R96, puzzle: Exclusion NG 2)"
  scaleUnit: "nM"
  resultNumber: 22.4
- chain: "AGCUGUGGCCGAGGAUAUCUAAACCUUCAAACCGAGGUAUACUCGGACAUGAGGAUCACCCAUGUAGAGAAGGCGGUCUCAGCA [Eli eng2 - 035] (Eterna round: R96, puzzle: Exclusion NG 2)"
  scaleUnit: "nM"
  resultNumber: 13.4
- chain: "ACAUGAGGAUCACCCAUGUAAUGAAGGGUACUAUAUUAAACGUAGGAUAUCGAUGUAAGUUUGUUCGAGAAGGACGAUUGCCUU [JR_ExcNG3_Sub053] (Eterna round: R96, puzzle: Exclusion NG 3)"
  scaleUnit: "nM"
  resultNumber: 75.8
- chain: "UGCUGACGAGGAUAUACAUGAGGAUCACCCAUGUUGGUUCAGCGACGAUAGUCGCAAUGUAGAAGGUGUCAGCA [E3/9-B2] (Eterna round: R97, puzzle: Exclusion 3)"
  scaleUnit: "nM"
  resultNumber: 97.2
- chain: "CCCUCAUGACGCACAUGAGGAUCACCCAUGUAUAAACCGUCAGAGGAUAUCCGCCGGUCACCGAAGGAGAAGGCUGACCUAAAG [Quinlaan] (Eterna round: R96, puzzle: Exclusion NG 3)"
  scaleUnit: "nM"
  resultNumber: 18.2
- chain: "UAUGGUUAAGUCAGGAUAUACAUACAGAAAUCUGAGUAGAAGGGACAUGAGGAUCACCCAUGUAUGGUAGUGUU [Ex4 #55] (Eterna round: R97, puzzle: Brourd's mod of Exclusion 4)"
  scaleUnit: "nM"
  resultNumber: 96.2
- chain: "GCUUGUGGGCAAGGAUAUCCUACGUUGUUCUGGUUCGUGUCUGUCACAUGAGGAUCACCCAUGUGGGAGAAGGUGCCUUUGGUG [Design 62] (Eterna round: R96, puzzle: Exclusion NG 2)"
  scaleUnit: "nM"
  resultNumber: 15.6
- chain: "GCAGCAAACUCUAUUAAAACCACAUGAGGAUCACCCAUGUCUCAGGAUAUGGUCUGGAUUACAGGCCAGAAGGGAGAAAGCUGC [Eli exng3 - 054] (Eterna round: R96, puzzle: Exclusion NG 3)"
  scaleUnit: "nM"
  resultNumber: 15.1
- chain: "CCAUGAUAAGGAUAUUGAAGGUUCGACAUGAGGAUCACCCAUGUUAUGUUGGAAAAGGGACAAGAAGGUAUUAAUU [salish99_ex5_r4_221] (Eterna round: R97, puzzle: Exclusion 5)"
  scaleUnit: "nM"
  resultNumber: 45.8
- chain: "GCCGAUUAAGUGAGGAUAUACCUAUGGAUACAUAGGUAGAAGGCACAUGAGGAUCACCCAUGUAUCCUAUCGGC [Eli bmx4 4.27] (Eterna round: R97, puzzle: Brourd's mod of Exclusion 4)"
  scaleUnit: "nM"
  resultNumber: 59.8
- chain: "GCUUCGGCAGGAUAUACAUGAGGAUCACCCAUGUGCUUCGGCUUGAUCAAGUUGAAGUGUAGAAGGGUUGAAGU [-25.5, -22.5 kcal, 26% A, 3 bis, 3 bis] (Eterna round: R97, puzzle: Exclusion 3)"
  scaleUnit: "nM"
  resultNumber: 78.7
- chain: "AAAGCACAUGAGGAUCACCCAUGUGAGGAUAUACAGAAAAUCUCGUUUACGAGGACUCGUAGAAGGCGCAGUGC [Eternabot (L2) Solution 19] (Eterna round: R97, puzzle: Exclusion 1)"
  scaleUnit: "nM"
  resultNumber: 21.3
